experimental_target: Scavenger receptor class B member 1 (Mus musculus)
test_name: inhibitors of purified SR-BI lipid uptake, orthogonal assay for SR-BI HDL uptake inhibitor project, biochemical, reconstituted liposomes, [3H]CE-HDL, scintillation, dry powder (AID 602155)
experimental_conditions: SR-BI proteoliposomes, [3H]CE-HDL selective uptake, at 1 µM, hits give low values
property_name: lipid uptake (%)

The cases that follow already have their lipid uptake on record.
compound: CCOC(=O)N1CCC(NC(=O)c2ccc3c(c2)N(Cc2ccc(F)cc2)CCS3)CC1
unit_symbol: %
lipid uptake: 52.9
//
compound: CCC(=O)N1CCc2cc(-c3csc(NC(=O)c4ccco4)n3)ccc21
unit_symbol: %
lipid uptake: 63.1

(A) COc1ccc(-c2nnn(CC(=O)N(C3CCCCC3)C(C)C(=O)NC3CCCC3)n2)cc1OC (centres undefined)
(B) O=C(Nc1ccccc1)c1ccccc1NS(=O)(=O)c1ccc(Cl)cc1
Challenge: For the two items A and B , which reports the higher lipid uptake value? Please identify the chosen entry by its label.
Response given: B
(B: 128%, A: 46.9%)

Reference for the values: PubChem BioAssay AID602155
